Biological target: ERα in MCF7 cells (Homo sapiens (Human), UniProt P03372)
Sequence (P03372 whole entry): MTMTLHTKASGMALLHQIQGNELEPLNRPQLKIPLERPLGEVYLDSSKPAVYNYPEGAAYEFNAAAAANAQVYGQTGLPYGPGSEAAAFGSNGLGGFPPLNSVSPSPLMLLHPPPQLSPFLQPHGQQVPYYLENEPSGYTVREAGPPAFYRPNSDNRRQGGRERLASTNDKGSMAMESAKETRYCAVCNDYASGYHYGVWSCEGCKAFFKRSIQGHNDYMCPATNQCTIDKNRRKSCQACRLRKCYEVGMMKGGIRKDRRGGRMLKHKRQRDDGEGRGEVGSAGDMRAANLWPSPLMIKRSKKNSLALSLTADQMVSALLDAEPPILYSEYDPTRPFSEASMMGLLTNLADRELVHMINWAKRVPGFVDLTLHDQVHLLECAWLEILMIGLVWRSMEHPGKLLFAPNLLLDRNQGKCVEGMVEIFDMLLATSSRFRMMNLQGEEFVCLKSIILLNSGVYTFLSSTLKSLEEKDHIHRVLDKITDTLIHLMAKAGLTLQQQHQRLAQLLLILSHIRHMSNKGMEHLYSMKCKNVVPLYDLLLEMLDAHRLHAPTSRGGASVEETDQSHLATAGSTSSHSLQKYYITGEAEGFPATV
Test: Test C: estrogen receptor degradation activity, ERα in cell western assay in MCF7 cells
Type: cell-based
Conditions: at 3 μM, 4 hours, relative to fulvestrant
Procedure: Test C: Estrogen Receptor Degradation Activity Test C involves measuring the in vitro degradation activity of the compounds of the invention. […] MCF7 cells (ATCC) were seeded in 384 wells microplate (collagen coated) at concentration of >9990 cells/30 μL per well in red phenol free MEM alpha medium (invitrogen) containing 5% charcoal dextran striped FBS. […] Integrated intensities in the green fluorescence and red fluorescence were measured to determine the levels of ERα and DNA respectively.
READOUT_KIND: % Degradation at 3 μM (%)
Give bare numbers, in %.

Previously resolved entries follow.
# CHEMICAL_STRUCTURE, % Degradation at 3 μM, %
rows = [
    ("Cc1ccc(C2=C(c3ccc(O[C@H]4CCN(CCCF)C4)cc3)c3ccc(O)c(F)c3OCC2)c(F)c1", 90),
    ("CCOc1cc(F)c(C2=C(c3ccc(O[C@H]4CCN(CCCF)C4)cc3)c3ccc(O)cc3SCC2)cc1F", 89),
    ("Oc1ccc2c(c1)SCCC(c1ccc(F)cc1Cl)=C2c1ccc(O[C@H]2CCN(CCCF)C2)cc1", 89),
]

Request: What does the record list as % Degradation at 3 μM for Oc1ccc2c(c1F)OCCC(c1cccc3[nH]ccc13)=C2c1ccc(O[C@H]2CCN(CCCF)C2)cc1 ?
Result: 83
